target desc: STK24 (MST3) (Homo sapiens, UniProt Q9Y6E0)
Sequence (Q9Y6E0 whole entry): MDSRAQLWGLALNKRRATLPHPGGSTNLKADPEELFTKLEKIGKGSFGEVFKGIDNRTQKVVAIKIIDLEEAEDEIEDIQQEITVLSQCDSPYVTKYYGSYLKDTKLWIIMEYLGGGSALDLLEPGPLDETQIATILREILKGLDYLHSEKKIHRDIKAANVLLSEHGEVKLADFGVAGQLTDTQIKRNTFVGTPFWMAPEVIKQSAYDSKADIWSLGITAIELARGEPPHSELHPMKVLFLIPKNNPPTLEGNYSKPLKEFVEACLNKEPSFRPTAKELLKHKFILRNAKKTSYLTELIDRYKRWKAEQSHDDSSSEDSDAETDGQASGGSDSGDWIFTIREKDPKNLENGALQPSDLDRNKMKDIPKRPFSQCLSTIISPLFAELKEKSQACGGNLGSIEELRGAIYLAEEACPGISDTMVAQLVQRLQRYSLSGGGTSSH
experiment description: SelectScreen kinase specificity survey
condition label: estimated, abridged dose response curve, read-out: Kinase inhibitory activity EC50
assay metric: pEC50
Give bare numbers, as −log10 of the molar value.

CN(C)CCCNc1ccc2ncn3c4ccc5[nH]ncc5c4c(=O)c1c23	5.98

Query string: pEC50 lookup needed for CCN(CC)CCNc1ccc2ncn3c4ccc(O)cc4c(=O)c1c23 [Symadex, reference compound] , thanks.
Result string: 6.13

###

target desc: ADRBK2 (BARK2, GRK3) (Homo sapiens)
Construct: purchased Invitrogen (SelectScreen platform)
Sequence (P35626 whole entry): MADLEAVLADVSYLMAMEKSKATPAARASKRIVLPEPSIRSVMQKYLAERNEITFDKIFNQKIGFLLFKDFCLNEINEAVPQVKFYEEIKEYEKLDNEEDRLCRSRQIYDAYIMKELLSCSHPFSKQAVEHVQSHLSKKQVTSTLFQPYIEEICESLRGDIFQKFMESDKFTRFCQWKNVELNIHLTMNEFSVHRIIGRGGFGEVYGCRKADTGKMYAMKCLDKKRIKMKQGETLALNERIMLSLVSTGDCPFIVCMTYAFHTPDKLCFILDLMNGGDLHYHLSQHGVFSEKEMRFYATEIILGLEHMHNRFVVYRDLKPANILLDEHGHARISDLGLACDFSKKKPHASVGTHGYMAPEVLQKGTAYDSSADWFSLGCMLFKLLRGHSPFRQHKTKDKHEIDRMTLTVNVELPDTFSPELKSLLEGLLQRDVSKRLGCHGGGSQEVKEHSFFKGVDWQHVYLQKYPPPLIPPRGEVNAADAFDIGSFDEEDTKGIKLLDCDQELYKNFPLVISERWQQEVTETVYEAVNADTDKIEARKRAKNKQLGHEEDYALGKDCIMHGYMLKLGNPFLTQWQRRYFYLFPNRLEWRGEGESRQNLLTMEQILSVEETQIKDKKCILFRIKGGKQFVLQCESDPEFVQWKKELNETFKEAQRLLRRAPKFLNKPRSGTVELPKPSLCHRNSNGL
experiment description: SelectScreen kinase specificity survey
Assay type: biochemical
pEC50: −log10 of the molar value.
assay metric: pEC50

Query string: Observed pEC50 on ADRBK2 (BARK2, GRK3) (Homo sapiens) for CCN(CC)CCNc1ccc2ncn3c4ccc(O)cc4c(=O)c1c23 [Symadex, reference compound] , please.
Result string: < 5.30
